Source: ChEMBL document CHEMBL4028891

Parameter Kd: see the listing below.
ASSAY TARGET: Tyrosine-protein phosphatase non-receptor type 5 (Homo sapiens)
Sequence (P54829 whole entry): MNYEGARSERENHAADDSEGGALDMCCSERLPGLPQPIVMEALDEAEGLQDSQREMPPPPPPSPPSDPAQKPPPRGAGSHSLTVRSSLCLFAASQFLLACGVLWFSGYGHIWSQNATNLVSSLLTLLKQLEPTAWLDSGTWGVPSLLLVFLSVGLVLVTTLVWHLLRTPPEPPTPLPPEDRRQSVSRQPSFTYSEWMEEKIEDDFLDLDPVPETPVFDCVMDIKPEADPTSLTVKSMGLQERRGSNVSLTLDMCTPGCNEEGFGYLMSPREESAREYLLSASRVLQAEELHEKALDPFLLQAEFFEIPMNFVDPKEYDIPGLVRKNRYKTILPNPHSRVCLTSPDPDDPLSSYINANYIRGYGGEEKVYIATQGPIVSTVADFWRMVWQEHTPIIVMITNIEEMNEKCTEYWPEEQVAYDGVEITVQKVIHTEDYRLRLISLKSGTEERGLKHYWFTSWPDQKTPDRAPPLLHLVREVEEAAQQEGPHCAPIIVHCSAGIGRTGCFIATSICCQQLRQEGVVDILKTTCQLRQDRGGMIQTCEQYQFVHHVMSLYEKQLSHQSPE
Number in µM, nothing else.

>>> print(df.to_string())
                                smiles_code  measured_endpoint  value_measured
0  O=P(O)(O)[C@H](O)c1ccc(-c2cccc([C@@H](O)c3ccc(Cl)c(Cl)c3)c2)cc1                 Kd            27.2

Shift focus to the following entry.
## Task Any idea what Kd was measured for O=P(O)(O)[C@H](O)c1ccc(-c2cccc([C@H](O)c3ccc(Cl)c(Cl)c3)c2)cc1 ?
## Result 31.4
